Sourced from the supplement of paper PMC6555819

Could you please report measured PBM binding z-score for the items listed next?
- Test system: PPARg:RXRa DBDmut IVT, anti-RXR (DBD mutation: RXRa K156A/R161A, NR concentration 270 nM, RXRa partner concentration 90 nM)
- test-protocol: PBM binding z-score (relative to random genomic background probes); higher = stronger binding; sequences stand for … in GC…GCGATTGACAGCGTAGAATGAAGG
One number for each entry.

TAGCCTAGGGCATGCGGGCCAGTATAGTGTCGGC : -0.968

List reported PBM binding z-score for each of these sequences:
1. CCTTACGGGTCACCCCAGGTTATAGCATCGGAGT
2. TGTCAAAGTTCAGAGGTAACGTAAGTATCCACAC
3. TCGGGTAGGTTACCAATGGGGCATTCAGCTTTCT
4. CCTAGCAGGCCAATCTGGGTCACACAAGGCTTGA

1.58
-0.368
1.78
4.53

----------
- Tested on: RARg:RXRa (NR concentration 270 nM, RXRa partner concentration 90 nM)
- test-protocol: PBM binding z-score (relative to random genomic background probes); higher = stronger binding; sequences stand for … in GC…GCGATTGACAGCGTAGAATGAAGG
reported-metric: PBM binding z-score
Answers are plain numbers.

Below, 5 sequences whose answers are already recorded.
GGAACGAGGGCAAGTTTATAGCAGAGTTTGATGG : 1.5
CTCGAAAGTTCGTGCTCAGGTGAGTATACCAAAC : 2.29
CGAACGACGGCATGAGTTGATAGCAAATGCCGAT : -0.397
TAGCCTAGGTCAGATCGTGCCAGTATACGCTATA : 2.83
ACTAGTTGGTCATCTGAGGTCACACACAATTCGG : 4.22

List reported PBM binding z-score for each of these sequences:
1. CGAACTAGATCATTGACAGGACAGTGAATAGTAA
2. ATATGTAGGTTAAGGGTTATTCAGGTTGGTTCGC
3. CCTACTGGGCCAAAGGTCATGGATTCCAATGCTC
4. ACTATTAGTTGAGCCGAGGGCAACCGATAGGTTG

[0.201, 2.11, 6.18, 0.604]

----------
Could you please report measured PBM binding z-score for the items listed next?
- Tested on: PPARg:RXRa (NR concentration 180 nM, RXRa partner concentration 90 nM)
- test-protocol: PBM binding z-score (relative to random genomic background probes); higher = stronger binding; sequences stand for … in GC…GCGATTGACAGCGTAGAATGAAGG

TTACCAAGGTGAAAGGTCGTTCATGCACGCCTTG : 8.83
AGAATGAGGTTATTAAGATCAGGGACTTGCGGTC : 1.59
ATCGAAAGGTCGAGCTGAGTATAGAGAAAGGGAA : 2.96
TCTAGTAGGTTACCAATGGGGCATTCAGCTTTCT : 2.38
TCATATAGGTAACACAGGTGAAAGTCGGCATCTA : 2.36
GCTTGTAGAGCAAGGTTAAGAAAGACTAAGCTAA : 1.41

List reported PBM binding z-score for each of these sequences:
1. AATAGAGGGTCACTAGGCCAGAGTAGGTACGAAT
2. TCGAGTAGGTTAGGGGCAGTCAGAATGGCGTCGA
3. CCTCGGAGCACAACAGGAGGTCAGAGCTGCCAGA
4. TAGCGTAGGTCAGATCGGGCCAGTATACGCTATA
5. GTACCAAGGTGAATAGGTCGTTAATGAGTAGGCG
6. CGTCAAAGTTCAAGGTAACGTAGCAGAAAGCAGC

[6.44, 0.492, 0.0996, 0.602, 1.38, 4.28]

List reported PBM binding z-score for each of these sequences:
1. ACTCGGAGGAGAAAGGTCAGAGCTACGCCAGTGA
2. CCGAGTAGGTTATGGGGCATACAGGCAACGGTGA
3. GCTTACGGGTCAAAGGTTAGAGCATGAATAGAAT
4. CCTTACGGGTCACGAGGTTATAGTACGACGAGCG

1: 3.76; 2: 3.69; 3: 10.6; 4: 7.25

List reported PBM binding z-score for each of these sequences:
1. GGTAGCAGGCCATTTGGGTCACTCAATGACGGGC
2. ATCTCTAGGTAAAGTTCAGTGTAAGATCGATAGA
3. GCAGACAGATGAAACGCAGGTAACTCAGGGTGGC
4. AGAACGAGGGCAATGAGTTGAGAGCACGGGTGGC

[0.828, 3.17, 0.616, 1.39]

----------
- Test system: PXR homodimer (NR concentration 270 nM)
- test-protocol: PBM binding z-score (relative to random genomic background probes); higher = stronger binding; sequences stand for … in GC…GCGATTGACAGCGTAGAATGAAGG
Returns one of class 1 or class 0; class 1 when PBM binding z-score is >= 0.1.

Here are 6 sequences together with their reported answers.
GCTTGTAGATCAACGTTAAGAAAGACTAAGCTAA : class 0
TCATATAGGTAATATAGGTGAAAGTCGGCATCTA : class 0
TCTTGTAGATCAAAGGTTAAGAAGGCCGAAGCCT : class 1
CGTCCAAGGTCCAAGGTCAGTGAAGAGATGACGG : class 1
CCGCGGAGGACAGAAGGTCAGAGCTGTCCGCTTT : class 0
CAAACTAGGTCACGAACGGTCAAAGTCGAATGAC : class 1

# check: PBM binding z-score of "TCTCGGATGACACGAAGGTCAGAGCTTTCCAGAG" is greater than or equal to 0.1 class 0

# check: PBM binding z-score of "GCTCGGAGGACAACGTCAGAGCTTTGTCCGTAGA" is greater than or equal to 0.1 class 0

# check: PBM binding z-score of "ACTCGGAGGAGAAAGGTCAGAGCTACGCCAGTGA" is greater than or equal to 0.1 class 0

# check: PBM binding z-score of "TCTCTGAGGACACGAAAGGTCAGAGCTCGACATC" is greater than or equal to 0.1 class 1

# check: PBM binding z-score of "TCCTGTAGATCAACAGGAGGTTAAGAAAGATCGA" is greater than or equal to 0.1 class 0

# check: PBM binding z-score of "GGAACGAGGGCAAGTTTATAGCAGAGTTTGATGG" is greater than or equal to 0.1 class 1

# check: PBM binding z-score of "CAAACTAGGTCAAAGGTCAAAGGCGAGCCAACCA" is greater than or equal to 0.1 class 1

# check: PBM binding z-score of "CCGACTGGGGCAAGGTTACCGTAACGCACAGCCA" is greater than or equal to 0.1 class 0

# check: PBM binding z-score of "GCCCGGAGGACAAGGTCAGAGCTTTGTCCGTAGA" is greater than or equal to 0.1 class 0

----------
Could you please report measured PBM binding z-score for the items listed next?
- Test system: PPARa:RXRa (NR concentration 270 nM, RXRa partner concentration 90 nM)
- test-protocol: PBM binding z-score (relative to random genomic background probes); higher = stronger binding; sequences stand for … in GC…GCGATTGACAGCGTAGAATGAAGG
Numbers only.

Below, 8 sequences whose answers are already recorded.
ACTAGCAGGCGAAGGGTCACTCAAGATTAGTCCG : 3.72
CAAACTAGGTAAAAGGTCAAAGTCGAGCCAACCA : 6.92
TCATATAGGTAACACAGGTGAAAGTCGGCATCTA : 2.4
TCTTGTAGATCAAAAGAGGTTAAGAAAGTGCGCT : 1.89
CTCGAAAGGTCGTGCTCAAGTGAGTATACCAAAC : 4.73
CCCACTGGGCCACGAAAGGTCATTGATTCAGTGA : 4.8
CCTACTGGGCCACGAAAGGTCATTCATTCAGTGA : 4.73
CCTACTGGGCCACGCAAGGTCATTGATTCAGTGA : 3.32

List reported PBM binding z-score for each of these sequences:
1. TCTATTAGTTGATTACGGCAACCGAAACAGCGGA
2. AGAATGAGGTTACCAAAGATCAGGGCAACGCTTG
3. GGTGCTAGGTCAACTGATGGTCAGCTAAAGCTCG

1. 0.921
2. 3.61
3. 3.84

----------
- Tested on: PPARg:RXRa 90nM:30nM, anti-RXR (NR concentration 90 nM, RXRa partner concentration 30 nM)
- test-protocol: PBM binding z-score (relative to random genomic background probes); higher = stronger binding; sequences stand for … in GC…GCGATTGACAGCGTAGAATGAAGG
Could you please report measured PBM binding z-score for the items listed next?
Give bare numbers.

Below, 10 sequences whose answers are already recorded.
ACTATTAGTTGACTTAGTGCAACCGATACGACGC : 0.153
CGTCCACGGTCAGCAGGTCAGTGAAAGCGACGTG : -0.328
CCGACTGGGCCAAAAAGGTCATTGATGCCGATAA : 2.22
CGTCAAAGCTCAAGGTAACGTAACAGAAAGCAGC : 0.133
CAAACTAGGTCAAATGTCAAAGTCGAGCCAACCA : 10.8
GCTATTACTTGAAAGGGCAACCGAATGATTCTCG : 0.0562
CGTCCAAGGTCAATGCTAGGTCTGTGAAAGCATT : 2.73
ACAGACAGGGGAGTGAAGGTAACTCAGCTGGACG : 0.442
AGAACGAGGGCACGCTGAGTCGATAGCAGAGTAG : 0.871
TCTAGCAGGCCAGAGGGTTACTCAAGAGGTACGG : 1.81

List reported PBM binding z-score for each of these sequences:
1. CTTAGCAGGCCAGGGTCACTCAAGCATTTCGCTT
2. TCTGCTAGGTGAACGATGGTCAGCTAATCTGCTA

[1.06, 0.916]
